test: activity coefficient (dimensionless); of the first substance listed, at infinite dilution; xn = mol fraction of the nth substance listed; settings: 363.15 K; Liquid; Chromatography; x1 = 0
measurement-type: activity coefficient

(P) CC(C)CCO [3-methylbutan-1-ol] + CCC[n+]1ccn(C)c1C.F[B-](F)(F)F
(Q) CCOC(C)=O [ethyl acetate] + CCC[n+]1ccn(C)c1C.F[B-](F)(F)F
(R) C1CCOC1 [tetrahydrofuran] + CCC[n+]1ccn(C)c1C.F[B-](F)(F)F
stdin: Arrange these 3 molecules in increasing order of activity coefficient. # answer = labels listed in requested order
stdout: P, R, Q
(P: 3.02, R: 5.78, Q: 8.63)

---

assay: activity coefficient (dimensionless); of the first substance listed, at infinite dilution; xn = mol fraction of the nth substance listed; settings: 323.15 K; Liquid; Chromatography; x1 = 0
measurement-type: activity coefficient

CC(C)CCO [3-methylbutan-1-ol] + CCC[n+]1ccn(C)c1C.F[B-](F)(F)F    4.46

(1) CCO [ethanol] + CCC[n+]1ccn(C)c1C.F[B-](F)(F)F
(2) CC(C)CO [2-methyl-1-propanol] + CCC[n+]1ccn(C)c1C.F[B-](F)(F)F
stdin: Of 1 versus 2 , which is the one with smaller reported activity coefficient? Answer with the label corresponding to your selection.
stdout: 1
(1: 1.6, 2: 3.47)

---

assay: activity coefficient (dimensionless); of the first substance listed, at infinite dilution; xn = mol fraction of the nth substance listed; settings: 363.15 K; Liquid; Chromatography; x1 = 0
measurement-type: activity coefficient

// known answers, use as guide
CC(C)O [propan-2-ol] + CCC[n+]1ccn(C)c1C.F[B-](F)(F)F    1.86
CC(C)=O [acetone] + CCC[n+]1ccn(C)c1C.F[B-](F)(F)F    2.74
ClCCl [dichloromethane] + CCC[n+]1ccn(C)c1C.F[B-](F)(F)F    2.17

(1) ClC(Cl)Cl [trichloromethane] + CCC[n+]1ccn(C)c1C.F[B-](F)(F)F
(2) CCO [ethanol] + CCC[n+]1ccn(C)c1C.F[B-](F)(F)F
stdin: # returns the entry with the larger activity coefficient; inputs 1 and 2 Select an item and report its label.
stdout: 1

---

assay: activity coefficient (dimensionless); of the first substance listed, at infinite dilution; xn = mol fraction of the nth substance listed; details: 313.15 K; Liquid; Chromatography; x1 = 0
measurement-type: activity coefficient

Previously resolved entries follow.
CCOC(C)=O [ethyl acetate] + CCC[n+]1ccn(C)c1C.F[B-](F)(F)F    8.84
CC(C)=O [acetone] + CCC[n+]1ccn(C)c1C.F[B-](F)(F)F    2.53
CCC(C)O (centres undefined) [butan-2-ol] + CCC[n+]1ccn(C)c1C.F[B-](F)(F)F    3.99
CC(C)O [propan-2-ol] + CCC[n+]1ccn(C)c1C.F[B-](F)(F)F    2.53
CCCCO [butan-1-ol] + CCC[n+]1ccn(C)c1C.F[B-](F)(F)F    4.67

(a) ClCCl [dichloromethane] + CCC[n+]1ccn(C)c1C.F[B-](F)(F)F
(b) C1CCOC1 [tetrahydrofuran] + CCC[n+]1ccn(C)c1C.F[B-](F)(F)F
stdin: Select one. Lower activity coefficient: a or b Refer to your chosen item by its label in the answer.
stdout: a

(1) CO [methanol] + CCC[n+]1ccn(C)c1C.F[B-](F)(F)F
(2) CC(C)CO [2-methyl-1-propanol] + CCC[n+]1ccn(C)c1C.F[B-](F)(F)F
stdin: Between 1 and 2 , which one has the lower reported activity coefficient value? State your choice using its label.
stdout: 1
(1: 0.869, 2: 3.87)

---

assay: activity coefficient (dimensionless); of the first substance listed, at infinite dilution; xn = mol fraction of the nth substance listed; details: 333.15 K; Liquid; Chromatography; x1 = 0
measurement-type: activity coefficient

ClC(Cl)(Cl)Cl [tetrachloromethane] + CCC[n+]1ccn(C)c1C.F[B-](F)(F)F    9.58

(1) CCCCCO [pentan-1-ol] + CCC[n+]1ccn(C)c1C.F[B-](F)(F)F
(2) ClC(Cl)Cl [trichloromethane] + CCC[n+]1ccn(C)c1C.F[B-](F)(F)F
stdin: Returns: the label, 1 or 2 , whose recorded activity coefficient is the lower number. Respond using the label that marks the chosen record.
stdout: 2

---

experiment: activity coefficient (dimensionless); of the first substance listed, at infinite dilution; xn = mol fraction of the nth substance listed; details: 363.15 K; Liquid; Chromatography; x1 = 0
measurement-type: activity coefficient

Solved cases below.
CCCCO [butan-1-ol] + CCC[n+]1ccn(C)c1C.F[B-](F)(F)F    2.27
CO [methanol] + CCC[n+]1ccn(C)c1C.F[B-](F)(F)F    0.642
C1COCCO1 [1,4-dioxane] + CCC[n+]1ccn(C)c1C.F[B-](F)(F)F    3.35
CCCCCO [pentan-1-ol] + CCC[n+]1ccn(C)c1C.F[B-](F)(F)F    3.12
CCCO [propan-1-ol] + CCC[n+]1ccn(C)c1C.F[B-](F)(F)F    1.88

(A) CC(C)CO [2-methyl-1-propanol] + CCC[n+]1ccn(C)c1C.F[B-](F)(F)F
(B) CC#N [acetonitrile] + CCC[n+]1ccn(C)c1C.F[B-](F)(F)F
stdin: Given A and B , report the one with the higher recorded activity coefficient. The response must carry the label of the picked entry.
stdout: A

---

test: activity coefficient (dimensionless); of the first substance listed, at infinite dilution; xn = mol fraction of the nth substance listed; details: 343.15 K; Liquid; Chromatography; x1 = 0
measurement-type: activity coefficient

Record excerpt, results attached:
CCOC(C)=O [ethyl acetate] + CCC[n+]1ccn(C)c1C.F[B-](F)(F)F    8.71
ClC(Cl)(Cl)Cl [tetrachloromethane] + CCC[n+]1ccn(C)c1C.F[B-](F)(F)F    10
CCO [ethanol] + CCC[n+]1ccn(C)c1C.F[B-](F)(F)F    1.44
ClC(Cl)Cl [trichloromethane] + CCC[n+]1ccn(C)c1C.F[B-](F)(F)F    1.65
CC(C)CCO [3-methylbutan-1-ol] + CCC[n+]1ccn(C)c1C.F[B-](F)(F)F    3.78

(I) CCCCO [butan-1-ol] + CCC[n+]1ccn(C)c1C.F[B-](F)(F)F
(II) ClCCl [dichloromethane] + CCC[n+]1ccn(C)c1C.F[B-](F)(F)F
stdin: Returns: the argument ( I or II ) having the larger activity coefficient. Your answer should be the label attached to the chosen record.
stdout: I

---

assay: activity coefficient (dimensionless); of the first substance listed, at infinite dilution; xn = mol fraction of the nth substance listed; conditions: 333.15 K; Liquid; Chromatography; x1 = 0
measurement-type: activity coefficient

CC(C)O [propan-2-ol] + CCC[n+]1ccn(C)c1C.F[B-](F)(F)F    2.33
CCO [ethanol] + CCC[n+]1ccn(C)c1C.F[B-](F)(F)F    1.51
CC(C)CO [2-methyl-1-propanol] + CCC[n+]1ccn(C)c1C.F[B-](F)(F)F    3.07
CCCO [propan-1-ol] + CCC[n+]1ccn(C)c1C.F[B-](F)(F)F    2.59
CC#N [acetonitrile] + CCC[n+]1ccn(C)c1C.F[B-](F)(F)F    1.37
CC(C)CCO [3-methylbutan-1-ol] + CCC[n+]1ccn(C)c1C.F[B-](F)(F)F    4.18

(a) CCOC(C)=O [ethyl acetate] + CCC[n+]1ccn(C)c1C.F[B-](F)(F)F
(b) CCC(C)O (centres undefined) [butan-2-ol] + CCC[n+]1ccn(C)c1C.F[B-](F)(F)F
(c) ClCCl [dichloromethane] + CCC[n+]1ccn(C)c1C.F[B-](F)(F)F
stdin: Hello, I need these entries ordered by activity coefficient, highest reading first. Thanks! Give me the labels in the order the question wants.
stdout: a, b, c
(a: 8.75, b: 3.3, c: 1.93)

---

assay: activity coefficient (dimensionless); of the first substance listed, at infinite dilution; xn = mol fraction of the nth substance listed; conditions: 323.15 K; Liquid; Chromatography; x1 = 0
measurement-type: activity coefficient

Below, 7 compounds whose answers are already recorded.
CCC(C)O (centres undefined) [butan-2-ol] + CCC[n+]1ccn(C)c1C.F[B-](F)(F)F    3.67
ClC(Cl)Cl [trichloromethane] + CCC[n+]1ccn(C)c1C.F[B-](F)(F)F    1.4
CCCCCO [pentan-1-ol] + CCC[n+]1ccn(C)c1C.F[B-](F)(F)F    5.31
C1CCOC1 [tetrahydrofuran] + CCC[n+]1ccn(C)c1C.F[B-](F)(F)F    5.95
CC#N [acetonitrile] + CCC[n+]1ccn(C)c1C.F[B-](F)(F)F    1.38
CCCCO [butan-1-ol] + CCC[n+]1ccn(C)c1C.F[B-](F)(F)F    4.2
C1COCCO1 [1,4-dioxane] + CCC[n+]1ccn(C)c1C.F[B-](F)(F)F    3.14

(A) ClCCl [dichloromethane] + CCC[n+]1ccn(C)c1C.F[B-](F)(F)F
(B) CCCO [propan-1-ol] + CCC[n+]1ccn(C)c1C.F[B-](F)(F)F
stdin: Which has the higher activity coefficient, A or B ? // caller expects the label of the chosen entry
stdout: B
(B: 2.81, A: 1.84)
